- target_system: GABAA receptor α2 β3 γ2 (wt) (Homo sapiens, UniProt P18507+P28472+P47869)
- Sequence (P47869 29-451): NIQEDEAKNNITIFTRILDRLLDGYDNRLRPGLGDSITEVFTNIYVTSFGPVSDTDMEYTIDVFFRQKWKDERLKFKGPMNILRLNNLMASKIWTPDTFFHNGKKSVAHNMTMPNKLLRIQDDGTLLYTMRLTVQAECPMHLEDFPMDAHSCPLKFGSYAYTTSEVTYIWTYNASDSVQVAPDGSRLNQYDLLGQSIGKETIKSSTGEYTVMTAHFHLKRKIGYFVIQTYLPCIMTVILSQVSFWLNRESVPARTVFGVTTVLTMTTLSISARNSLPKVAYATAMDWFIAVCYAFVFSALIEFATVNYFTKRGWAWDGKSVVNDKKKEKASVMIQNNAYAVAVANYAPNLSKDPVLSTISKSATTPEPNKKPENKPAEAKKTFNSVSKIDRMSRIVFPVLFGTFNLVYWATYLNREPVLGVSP
- Sequence (P28472 26-473): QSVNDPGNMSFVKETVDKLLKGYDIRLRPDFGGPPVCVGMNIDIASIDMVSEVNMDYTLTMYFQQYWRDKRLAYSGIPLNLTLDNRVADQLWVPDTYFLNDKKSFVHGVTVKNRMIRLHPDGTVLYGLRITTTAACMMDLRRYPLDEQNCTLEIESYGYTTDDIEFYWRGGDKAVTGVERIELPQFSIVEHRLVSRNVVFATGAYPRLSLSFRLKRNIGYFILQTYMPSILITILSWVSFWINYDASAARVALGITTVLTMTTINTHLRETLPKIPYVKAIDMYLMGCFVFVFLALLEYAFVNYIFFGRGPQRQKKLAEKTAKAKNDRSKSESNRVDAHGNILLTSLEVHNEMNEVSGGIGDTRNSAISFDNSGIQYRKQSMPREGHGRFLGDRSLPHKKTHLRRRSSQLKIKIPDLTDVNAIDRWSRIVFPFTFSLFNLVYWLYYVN
- Sequence (P18507 40-475): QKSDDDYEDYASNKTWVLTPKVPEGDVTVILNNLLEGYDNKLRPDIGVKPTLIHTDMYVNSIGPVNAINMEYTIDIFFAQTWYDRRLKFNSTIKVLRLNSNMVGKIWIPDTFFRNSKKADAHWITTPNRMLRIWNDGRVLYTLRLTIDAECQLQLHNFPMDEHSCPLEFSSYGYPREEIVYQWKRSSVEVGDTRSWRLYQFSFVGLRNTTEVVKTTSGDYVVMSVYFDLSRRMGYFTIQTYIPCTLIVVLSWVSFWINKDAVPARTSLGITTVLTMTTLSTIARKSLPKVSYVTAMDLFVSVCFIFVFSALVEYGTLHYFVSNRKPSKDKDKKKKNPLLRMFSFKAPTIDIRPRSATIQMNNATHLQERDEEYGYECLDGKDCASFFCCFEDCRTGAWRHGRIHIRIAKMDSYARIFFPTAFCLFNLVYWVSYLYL
- experimental_details: [^3H]-Muscimol binding, wild-type receptor
- assay_context: wt α2 β3 γ2, membranes from CHO-K1 cells
quantity_name: Kd (nM)
Please respond with the number in nM and leave the unit unwritten.

# query: Kd of entry NCc1cc(=O)[nH]o1 [[^3H] Muscimol, Muscimol]
54.7
